Serine/threonine-protein kinase pim-1 (Homo sapiens, UniProt P11309): reported pKi for various compounds.
Sequence (P11309 whole entry): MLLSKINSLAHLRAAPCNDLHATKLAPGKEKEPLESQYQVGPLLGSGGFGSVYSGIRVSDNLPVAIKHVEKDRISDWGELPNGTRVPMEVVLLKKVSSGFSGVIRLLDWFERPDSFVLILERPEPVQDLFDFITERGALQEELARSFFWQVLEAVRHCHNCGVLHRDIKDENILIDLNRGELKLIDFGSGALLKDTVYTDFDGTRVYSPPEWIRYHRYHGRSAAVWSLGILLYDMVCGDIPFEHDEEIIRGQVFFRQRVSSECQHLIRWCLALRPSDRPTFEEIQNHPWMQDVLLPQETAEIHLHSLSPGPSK
// pKi here means minus log10 of the molar concentration (mol/L)

Examples with their reported pKi follow.
CCCCNc1c(-c2ccc3[nH]ncc3c2)nc2ncccn12	6.94
c1cn2c(NC3CCCCC3)c(-c3ccc4[nH]ncc4c3)nc2cn1	5.73

Qu. With Serine/threonine-protein kinase pim-1 (Homo sapiens, UniProt P11309) as the test system, provide measured pKi for this compound: c1ccn2c(NC3CCCCC3)c(-c3ccc4[nH]ncc4c3)nc2c1
Ans. 5.64

* * *

// log10(Ki) lookup, one value per entry
target: Rho-associated protein kinase 2 (Homo sapiens)
Sequence (O75116 whole entry): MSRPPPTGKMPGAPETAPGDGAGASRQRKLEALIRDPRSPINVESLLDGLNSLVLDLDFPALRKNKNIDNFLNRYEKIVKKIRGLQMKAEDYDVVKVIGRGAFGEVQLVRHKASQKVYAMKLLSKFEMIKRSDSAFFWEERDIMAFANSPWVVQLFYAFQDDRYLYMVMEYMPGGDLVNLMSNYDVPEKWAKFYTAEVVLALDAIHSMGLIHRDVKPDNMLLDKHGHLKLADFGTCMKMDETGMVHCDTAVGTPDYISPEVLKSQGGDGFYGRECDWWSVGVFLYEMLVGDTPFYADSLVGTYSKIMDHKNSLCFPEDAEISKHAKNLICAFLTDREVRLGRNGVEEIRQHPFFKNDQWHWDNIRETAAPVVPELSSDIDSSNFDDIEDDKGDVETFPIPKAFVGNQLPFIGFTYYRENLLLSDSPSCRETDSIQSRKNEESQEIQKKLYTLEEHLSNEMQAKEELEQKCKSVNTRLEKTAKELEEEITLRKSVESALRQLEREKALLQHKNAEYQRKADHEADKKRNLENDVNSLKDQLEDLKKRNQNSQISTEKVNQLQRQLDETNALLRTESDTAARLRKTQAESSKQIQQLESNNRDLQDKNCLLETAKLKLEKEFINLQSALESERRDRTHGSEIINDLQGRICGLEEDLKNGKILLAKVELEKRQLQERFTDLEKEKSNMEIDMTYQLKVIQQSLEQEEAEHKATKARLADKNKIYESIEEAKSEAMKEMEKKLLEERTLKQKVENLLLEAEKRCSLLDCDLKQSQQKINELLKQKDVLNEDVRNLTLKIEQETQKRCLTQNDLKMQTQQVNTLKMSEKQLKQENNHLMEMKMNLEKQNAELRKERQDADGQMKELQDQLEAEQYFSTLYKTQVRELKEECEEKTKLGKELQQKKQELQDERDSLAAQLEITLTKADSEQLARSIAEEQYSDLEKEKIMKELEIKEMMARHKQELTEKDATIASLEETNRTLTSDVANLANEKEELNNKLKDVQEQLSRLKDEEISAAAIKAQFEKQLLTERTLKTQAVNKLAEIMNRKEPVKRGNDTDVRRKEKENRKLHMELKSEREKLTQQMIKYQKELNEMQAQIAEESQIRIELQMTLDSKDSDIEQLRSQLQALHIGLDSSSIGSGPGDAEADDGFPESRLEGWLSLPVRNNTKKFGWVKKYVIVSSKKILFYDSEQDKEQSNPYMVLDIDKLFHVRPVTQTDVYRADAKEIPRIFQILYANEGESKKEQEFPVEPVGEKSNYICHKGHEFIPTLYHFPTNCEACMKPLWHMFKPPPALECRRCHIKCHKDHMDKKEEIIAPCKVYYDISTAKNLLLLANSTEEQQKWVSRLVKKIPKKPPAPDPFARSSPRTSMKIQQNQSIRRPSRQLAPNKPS
Field: value | Transform: log10 | Quantity: Ki | Unit: nM

Examples with their reported log10(Ki) follow.
c1ccc(-c2c(-c3ccc4[nH]ncc4c3)nc3ncccn23)cc1	0.78
c1ccc(CCNc2nc(-c3ccc4[nH]ncc4c3)cs2)cc1	2.56
Nc1nc(-c2ccc3[nH]ncc3c2)cs1	2.96
Clc1ccc(Nc2c(-c3ccc4[nH]ncc4c3)nc3ncccn23)cc1	3.19

Qu. With Rho-associated protein kinase 2 (Homo sapiens) as the test system, provide measured log10(Ki) for this compound: c1ccc(Nc2nc(-c3ccc4[nH]ncc4c3)c(-c3ccccc3)s2)cc1
Ans. 3.15

* * *

Glycogen synthase kinase-3 beta (Homo sapiens): reported Ki for various molecules.
Number in nM, nothing else.

c1ccn2c(NC3CCCCC3)c(-c3ccc4[nH]ncc4c3)nc2c1	2610

Now for another entry.
Qu. Give the measured Ki for c1ccc(-c2c(-c3ccc4[nH]ncc4c3)nc3ncccn23)cc1
Ans. 10

* * *

Serine/threonine-protein kinase pim-1 (Homo sapiens, UniProt P11309): reported Ki for various compounds.

Examples with their reported Ki follow.
c1ccc(CCNc2nc(-c3ccc4[nH]ncc4c3)cs2)cc1	> 8.75 µM
c1ccc(Nc2nc(-c3ccc4[nH]ncc4c3)c(-c3ccccc3)s2)cc1	> 8.75 µM

Now for another entry.
Qu. With Serine/threonine-protein kinase pim-1 (Homo sapiens, UniProt P11309) as the test system, provide measured Ki for this compound: Fc1ccc(-c2ncn(CCCN3CCOCC3)c2-c2ccc3[nH]ncc3c2)cc1
Ans. > 8.75 µM

* * *

// Ki lookup, one value per entry
target: Glycogen synthase kinase-3 beta (Homo sapiens, UniProt P49841); assay: Inhibition of GSK3-beta
Sequence (P49841 whole entry): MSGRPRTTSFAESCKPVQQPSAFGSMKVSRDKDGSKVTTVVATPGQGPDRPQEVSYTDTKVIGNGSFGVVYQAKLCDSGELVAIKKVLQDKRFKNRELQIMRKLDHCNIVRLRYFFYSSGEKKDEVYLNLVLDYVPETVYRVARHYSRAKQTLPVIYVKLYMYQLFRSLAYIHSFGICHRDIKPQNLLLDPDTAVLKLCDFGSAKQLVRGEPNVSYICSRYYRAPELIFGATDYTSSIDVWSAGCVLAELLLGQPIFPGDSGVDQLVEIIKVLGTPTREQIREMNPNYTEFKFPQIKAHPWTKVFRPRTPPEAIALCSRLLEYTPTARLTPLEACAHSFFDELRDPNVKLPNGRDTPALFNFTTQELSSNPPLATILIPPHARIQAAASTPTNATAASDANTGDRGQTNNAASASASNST

Fc1ccc(-c2ncn(CCCN3CCOCC3)c2-c2ccc3[nH]ncc3c2)cc1	> 5.45 µM
c1ccc(CCNc2nc(-c3ccc4[nH]ncc4c3)cs2)cc1	> 5.45 µM

Qu. Give the measured Ki for c1ccc(Nc2nc(-c3ccc4[nH]ncc4c3)c(-c3ccccc3)s2)cc1
Ans. > 5.45 µM
